target: Adenosine receptor A2a (Homo sapiens) (UniProt P29274); assay: Inhibition of [125I]Z241385 binding to human cloned adenosine A2A receptor expressed in CHO cells at 1 uM after 120 mins by scintillation counting; assay type: cell-based
Sequence (P29274 whole entry): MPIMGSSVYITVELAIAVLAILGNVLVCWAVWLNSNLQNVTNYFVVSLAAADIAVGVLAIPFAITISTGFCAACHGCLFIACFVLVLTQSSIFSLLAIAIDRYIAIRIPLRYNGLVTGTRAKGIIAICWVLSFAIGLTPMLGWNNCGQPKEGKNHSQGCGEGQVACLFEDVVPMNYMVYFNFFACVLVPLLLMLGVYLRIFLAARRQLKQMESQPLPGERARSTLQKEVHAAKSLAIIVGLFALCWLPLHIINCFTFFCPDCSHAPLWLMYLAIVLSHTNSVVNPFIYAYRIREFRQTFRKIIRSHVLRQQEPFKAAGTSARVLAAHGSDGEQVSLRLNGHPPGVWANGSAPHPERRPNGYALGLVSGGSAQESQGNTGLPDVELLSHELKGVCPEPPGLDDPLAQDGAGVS
We begin with a simple list: items and their reported inhibition.
property-label: inhibition

| structure-as-smiles | obs-value |
| --- | --- |
| CCc1nc2cn(-c3ccccc3)nc2c(=O)[nH]1 | 6% |
| O=c1[nH]c(=O)c2nn(-c3ccccc3)cc2[nH]1 | 5% |
| Cc1nc2cn(-c3ccccc3)nc2c(=O)[nH]1 | 1% |
| COc1ccc(-n2cc3nc[nH]c(=O)c3n2)cc1 | 1% |
| O=c1[nH]c(-c2ccccc2)nc2cn(-c3ccccc3)nc12 | 10% |
| O=c1[nH]cnc2cn(-c3ccccc3)nc12 | 1% |
| COc1ccc(-n2cc3nc(C)[nH]c(=O)c3n2)cc1 | 1% |
| Cc1cccc(-n2cc3nc(C)[nH]c(=O)c3n2)c1 | 1% |
| COc1ccc(-n2cc3nc(-c4ccccc4)[nH]c(=O)c3n2)cc1 | 1% |
| COc1ccc(-n2cc3nc(Cc4ccccc4)[nH]c(=O)c3n2)cc1 | 1% |
| Cc1ccc(-n2cc3nc(C)[nH]c(=O)c3n2)cc1 | 1% |
| O=c1[nH]c(Cc2ccccc2)nc2cn(-c3ccccc3)nc12 | 1% |
| CCc1nc2cn(-c3ccc(OC)cc3)nc2c(=O)[nH]1 | 1% |

====

target: Adenosine receptor A1 (Homo sapiens) (UniProt P30542); test: Inhibition of [125I]DPCPX binding to human cloned adenosine A1 receptor expressed in CHO cells at 1 uM after 120 mins by scintillation counting; format: cell-based; settings: in the assay text read “[3H]DPCPX” for “[125I]DPCPX”
Sequence (P30542 whole entry): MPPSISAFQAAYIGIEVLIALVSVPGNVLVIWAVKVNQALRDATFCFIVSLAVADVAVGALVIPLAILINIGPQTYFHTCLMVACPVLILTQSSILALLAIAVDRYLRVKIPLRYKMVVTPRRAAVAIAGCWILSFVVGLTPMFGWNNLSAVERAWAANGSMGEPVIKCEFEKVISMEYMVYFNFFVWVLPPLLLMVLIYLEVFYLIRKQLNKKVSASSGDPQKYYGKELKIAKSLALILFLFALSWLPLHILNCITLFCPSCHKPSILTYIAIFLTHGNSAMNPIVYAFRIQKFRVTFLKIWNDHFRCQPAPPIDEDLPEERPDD
property-label: inhibition (%)

| structure-as-smiles | property-label | obs-value |
| --- | --- | --- |
| O=c1[nH]c(-c2ccccc2)nc2cn(-c3ccccc3)nc12 | inhibition | 22 |
| Cc1cccc(-n2cc3nc(C)[nH]c(=O)c3n2)c1 | inhibition | 4 |
| CCc1nc2cn(-c3ccccc3)nc2c(=O)[nH]1 | inhibition | 11 |
| Cc1ccc(-n2cc3nc(C)[nH]c(=O)c3n2)cc1 | inhibition | 1 |
| O=c1[nH]cnc2cn(-c3ccccc3)nc12 | inhibition | 1 |
| O=c1[nH]c(=O)c2nn(-c3ccccc3)cc2[nH]1 | inhibition | 4 |
| COc1ccc(-n2cc3nc(Cc4ccccc4)[nH]c(=O)c3n2)cc1 | inhibition | 10 |
| COc1ccc(-n2cc3nc[nH]c(=O)c3n2)cc1 | inhibition | 2 |
| CCc1nc2cn(-c3ccc(OC)cc3)nc2c(=O)[nH]1 | inhibition | 1 |
| COc1ccc(-n2cc3nc(C)[nH]c(=O)c3n2)cc1 | inhibition | 5 |
| O=c1[nH]c(Cc2ccccc2)nc2cn(-c3ccccc3)nc12 | inhibition | 11 |
| COc1ccc(-n2cc3nc(-c4ccccc4)[nH]c(=O)c3n2)cc1 | inhibition | 1 |
| Cc1nc2cn(-c3ccccc3)nc2c(=O)[nH]1 | inhibition | 9 |

====

Biological target: Adenosine receptor A3 (Homo sapiens, UniProt P0DMS8)
Sequence (P0DMS8 whole entry): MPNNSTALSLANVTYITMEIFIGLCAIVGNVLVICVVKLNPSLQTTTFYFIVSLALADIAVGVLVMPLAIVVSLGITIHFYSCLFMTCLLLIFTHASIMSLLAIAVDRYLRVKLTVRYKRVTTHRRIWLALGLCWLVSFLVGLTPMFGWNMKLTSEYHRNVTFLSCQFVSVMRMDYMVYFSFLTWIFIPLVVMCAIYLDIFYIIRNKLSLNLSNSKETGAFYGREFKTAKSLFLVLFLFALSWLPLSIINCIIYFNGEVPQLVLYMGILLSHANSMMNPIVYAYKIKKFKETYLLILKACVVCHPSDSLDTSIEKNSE
pKi: −log10 of the molar value.
We begin with a simple list: items and their reported pKi.
property-label: pKi

| structure-as-smiles | property-label | obs-value |
| --- | --- | --- |
| COc1ccc(-n2cc3nc(C)[nH]c(=O)c3n2)cc1 | pKi | 8.92 |
| Cc1ccc(-n2cc3nc(C)[nH]c(=O)c3n2)cc1 | pKi | 8.00 |
| O=c1[nH]c(Cc2ccccc2)nc2cn(-c3ccccc3)nc12 | pKi | 6.05 |
| Cc1nc2cn(-c3ccccc3)nc2c(=O)[nH]1 | pKi | 7.80 |
| CCc1nc2cn(-c3ccccc3)nc2c(=O)[nH]1 | pKi | 7.28 |
| CCc1nc2cn(-c3ccc(OC)cc3)nc2c(=O)[nH]1 | pKi | 7.85 |
